Values were extracted from patent US8586617B2.

# tested_on: TAAR1 (Mus musculus (Mouse), UniProt Q923Y8)
# Sequence (Q923Y8 whole entry): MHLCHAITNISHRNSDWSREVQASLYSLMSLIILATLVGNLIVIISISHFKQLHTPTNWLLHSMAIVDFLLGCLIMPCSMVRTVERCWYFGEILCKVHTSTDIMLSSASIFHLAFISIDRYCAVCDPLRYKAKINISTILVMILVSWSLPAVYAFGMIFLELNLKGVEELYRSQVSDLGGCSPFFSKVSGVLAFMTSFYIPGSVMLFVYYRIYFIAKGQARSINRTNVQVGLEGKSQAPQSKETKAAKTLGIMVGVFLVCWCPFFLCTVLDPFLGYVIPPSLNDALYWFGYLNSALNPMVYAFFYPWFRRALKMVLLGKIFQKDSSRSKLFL
# measurement_protocol: TAAR1 radioligand binding assay ([3H]-rac-2-(1,2,3,4-tetrahydro-1-naphthyl)-2-imidazoline, membranes of stably transfected HEK293 cells)
# details: read-out: Ki (μM) mouse; mouse TAAR1; radioligand [3H]-rac-2-(1,2,3,4-tetrahydro-1-naphthyl)-2-imidazoline at 60 nM; 4° C., 30 minutes
attribute_measured: Ki (µM)

I: CCN(Cc1cnc[nH]1)c1cc(Cl)cc(Cl)c1 [Example 303]
II: CCN(Cc1cnc[nH]1)c1cccc(C)c1 [Example 6]
III: CCN(Cc1cnc[nH]1)c1ccc(Br)cc1 [Example 302]
IV: CC(C)N(Cc1cnc[nH]1)c1cccc(-c2ccccc2)c1 [Example 142]
Rank the items above by Ki, largest value first. Reply: labels, ordered per the request.
IV, III, II, I
(IV: 0.0079 µM, III: 0.003 µM, II: 0.0018 µM, I: 0.001 µM)

I: CCN(Cc1cnc[nH]1)c1cc(F)cc(Cl)c1 [Example 308]
II: CC(C)N(Cc1cnc[nH]1)c1ccc(OCc2ccccc2)c(Cl)c1 [Example 133]
When I and II are compared, which has the higher number for Ki? // caller expects the label of the chosen entry
II
(II: 0.0077 µM, I: 0.001 µM)
